Quick list: pIC50 per entry.
# System: lipopolysaccharide-stimulated macrophages (RAW 264.7)
# Method summary: Inhibition of nitric oxide production (Griess reagent)
# Assay type: cell-based, murine
# Assay context: Mus musculus, RAW264.7; LPS 100 ng/mL, 24 h; highest tested concentration 100 µM; read-out: NO Production IC50
pIC50: −log10 of the molar value.

[
  {
    "Compound": "COc1cc([C@H]2Oc3cc([C@H]4Oc5cc(O)c(Br)c(O)c5C(=O)[C@@H]4O)ccc3O[C@@H]2CO)ccc1O [compound 11, 6-Bromosilybin A]",
    "pIC50": 4.40
  },
  {
    "Compound": "O=C1c2c(O)cc(O)cc2OC(c2ccc(O)c(O)c2)C1O (stereo not drawn) [compound 1, taxifolin, reference compound]",
    "pIC50": 4.28
  },
  {
    "Compound": "COc1cc(C2Oc3cc(-c4oc5c(Br)c(O)c(Br)c(O)c5c(=O)c4O)ccc3OC2CO)ccc1O (stereo not drawn) [compound 17, 6,8-dibromo-2,3-dehydrosilybin AB]",
    "pIC50": 4.35
  }
]

----------
# Test system: Vibrio campbellii BAA 1119 (AI-2)
# Method summary: Viability of the quorum-sensing reporter culture (resazurin assay), AI-2 strain
# Type: cell-based
# Assay context: BAA1119, V. campbellii BAA 1119, resazurin assay, read-out: IC50 (concentration that halved the viability)
Property: IC50 (µM)

[
  {
    "Item smiles": "COc1cc([C@@H]2Oc3cc([C@H]4Oc5c(Br)c(O)c(Br)c(O)c5C(=O)[C@@H]4O)ccc3O[C@H]2CO)ccc1O",
    "Target desc": "Vibrio campbellii BAA 1119 (AI-2)",
    "Value qualifier": "=",
    "Reading": 60.2
  },
  {
    "Item smiles": "O=c1c(O)c(-c2ccc(O)c(O)c2)oc2c(Br)c(O)c(Br)c(O)c12",
    "Target desc": "Vibrio campbellii BAA 1119 (AI-2)",
    "Value qualifier": "=",
    "Reading": 3.5
  },
  {
    "Item smiles": "COc1cc([C@H]2Oc3cc([C@H]4Oc5c(Br)c(O)cc(O)c5C(=O)[C@@H]4O)ccc3O[C@@H]2CO)ccc1O",
    "Target desc": "Vibrio campbellii BAA 1119 (AI-2)",
    "Value qualifier": ">",
    "Reading": 200
  }
]

----------
EC50 values by entry
# System: Vibrio campbellii BAA 1119 (AI-2)
# Method summary: microbe, parasite or virus in culture
# Type: cell-based
# Assay context: Vibrio campbellii, BAA1119, 16 h, read-out: EC50 (concentration that halved the communication)
Property: EC50 (µM)

[
  {
    "Compound": "O=C1c2c(O)cc(O)cc2OC(c2ccc(O)c(O)c2)C1O (stereo not drawn) [compound 1, taxifolin, reference compound]",
    "Units of measure": "µM",
    "Reading": 7.3
  },
  {
    "Compound": "COc1cc([C@@H]2Oc3cc([C@H]4Oc5c(Br)c(O)cc(O)c5C(=O)[C@@H]4O)ccc3O[C@H]2CO)ccc1O [compound 20, 8-bromosilybin B]",
    "Units of measure": "µM",
    "Reading": 4.7
  },
  {
    "Compound": "COc1cc([C@H]2Oc3cc([C@H]4Oc5c(Br)c(O)cc(O)c5C(=O)[C@@H]4O)ccc3O[C@@H]2CO)ccc1O [compound 19, 8-bromosilybin A]",
    "Units of measure": "µM",
    "Reading": 4.6
  }
]
